Tested on: P-gp and BCRP
ASSAY_OVERVIEW: in vitro
PARTICULARS: human, Caco-2, pH 7.4, BL-to-AP Papp, C2BBe1 cells, 10 μM probe, batch used with Sol_1, Sol_3, and Sol_4; Average
ASSAY_READOUT: Papp B→A at 10 µM (×10⁻⁶ cm/s)
Numbers only here, please. The scale is ×10⁻⁶ cm/s.

Lab note: measured Papp B→A at 10 µM of Nc1nc(Cl)nc2c1ncn2[C@H]1C[C@H](O)[C@@H](CO)O1 [cladribine] was 13.5

* * *

ASSAY_OVERVIEW: Non-specific binding assessment, uptake transporter format (cell-free poly-D-lysine plates)
Format: in vitro ADME
PARTICULARS: cell-free poly-D-lysine-coated 24-well plates, without BSA pre-incubation, both matrices
For each of the molecules below, state its recovery at 5 min.

Lab note: measured recovery at 5 min of O=C(O)CCCc1ccccc1 [PB, sodium phenylbutyrate] was > 90%

Lab note: measured recovery at 5 min of "C[C@H](CCC(=O)NCCS(=O)(=O)O)[C@H]1CC[C@H]2[C@@H]3[C@@H](O)C[C@@H]4C[C@H](O)CC[C@]4(C)[C@H]3CC[C@]12C" was > 90%
